Biological target: α-galactosidase from green coffee beans (gcb, GH 27) (Coffea arabica)
Construct: Green coffee bean α-galactosidase: 50 mM sodium phosphate buffer (pH 7); from tissue; host or cells: green coffee beans
Sequence (Q42656 16-378): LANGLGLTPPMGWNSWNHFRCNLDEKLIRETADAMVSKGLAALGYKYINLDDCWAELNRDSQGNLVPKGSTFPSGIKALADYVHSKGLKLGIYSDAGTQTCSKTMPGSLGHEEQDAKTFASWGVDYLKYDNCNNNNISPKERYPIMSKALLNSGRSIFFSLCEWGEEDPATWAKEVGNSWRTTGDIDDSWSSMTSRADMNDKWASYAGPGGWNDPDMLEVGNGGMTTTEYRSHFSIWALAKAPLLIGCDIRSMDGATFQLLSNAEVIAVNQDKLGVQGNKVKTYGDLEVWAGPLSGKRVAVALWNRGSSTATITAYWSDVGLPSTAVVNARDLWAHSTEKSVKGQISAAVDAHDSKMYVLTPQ
Experiment: Ki determination with green coffee bean α-galactosidase
Type: biochemical
Conditions: pH 7, substrate Gal-α-MU, room temperature
Measure name: pKi
Answers are plain numbers, as −log10 of the molar value.

Example molecules with recorded pKi:
Smiles text: CCCCCCCCCN[C@@H]1[C@H](O)[C@@H](O)[C@@H](O)[C@H]1CO
pKi: 6.60

Smiles text: N[C@@H]1[C@H](O)[C@@H](O)[C@@H](O)[C@H]1CO
pKi: 5.17

Smiles text: CCCCCCN[C@@H]1[C@H](O)[C@@H](O)[C@@H](O)[C@H]1CO
pKi: 6.72

Q) Fill in the blank: the reported pKi of `CN(C)c1cccc2c(S(=O)(=O)NCCCCCCN[C@@H]3[C@H](O)[C@@H](O)[C@@H](O)[C@H]3CO)cccc12` is ____.
A) 6.85

---

Biological target: β-glucosidase/β-galactosidase from Agrobacterium sp. (Abg, GH 1) (Agrobacterium sp., UniProt P12614)
Sequence (P12614 1-459): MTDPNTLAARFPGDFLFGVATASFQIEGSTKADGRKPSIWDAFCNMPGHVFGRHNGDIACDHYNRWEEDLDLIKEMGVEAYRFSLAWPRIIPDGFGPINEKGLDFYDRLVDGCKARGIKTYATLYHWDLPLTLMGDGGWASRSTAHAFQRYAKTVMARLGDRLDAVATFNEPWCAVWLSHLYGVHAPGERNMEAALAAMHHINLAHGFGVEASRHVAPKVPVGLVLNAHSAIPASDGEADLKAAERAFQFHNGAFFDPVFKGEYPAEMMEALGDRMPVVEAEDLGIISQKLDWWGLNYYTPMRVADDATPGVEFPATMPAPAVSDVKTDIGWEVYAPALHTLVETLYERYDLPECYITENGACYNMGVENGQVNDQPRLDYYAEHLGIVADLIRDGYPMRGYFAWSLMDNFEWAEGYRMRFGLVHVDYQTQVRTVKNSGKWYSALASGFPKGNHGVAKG
Assay: Ki determination with Agrobacterium sp. β-glucosidase (Abg)
Settings: pH 7, substrate Gal-β-pNP, room temperature; read-out: Ki Abg (β-Glc/β-Gal) (GH 1)
Assign Ki to each entry below.
Give bare numbers, in nM.

Smiles text: CCCCCCN[C@@H]1[C@H](O)[C@@H](O)[C@@H](O)[C@H]1CO
Experimental value: 13
//
Smiles text: N[C@@H]1[C@H](O)[C@@H](O)[C@@H](O)[C@H]1CO
Experimental value: 14
//
Smiles text: CN(C)c1cccc2c(S(=O)(=O)NCCCCCCN[C@@H]3[C@H](O)[C@@H](O)[C@@H](O)[C@H]3CO)cccc12
Experimental value: 5

Shifting focus to the molecule that follows.
Q) What Ki value was documented for this molecule, `CCCCCCCCCN[C@@H]1[C@H](O)[C@@H](O)[C@@H](O)[C@H]1CO` ?
A) 3.7

---

Target: recombinant human lysosomal β-glucocerebrosidase (GCase, GH 30) (Homo sapiens, UniProt P04062)
Sequence (P04062 40-536): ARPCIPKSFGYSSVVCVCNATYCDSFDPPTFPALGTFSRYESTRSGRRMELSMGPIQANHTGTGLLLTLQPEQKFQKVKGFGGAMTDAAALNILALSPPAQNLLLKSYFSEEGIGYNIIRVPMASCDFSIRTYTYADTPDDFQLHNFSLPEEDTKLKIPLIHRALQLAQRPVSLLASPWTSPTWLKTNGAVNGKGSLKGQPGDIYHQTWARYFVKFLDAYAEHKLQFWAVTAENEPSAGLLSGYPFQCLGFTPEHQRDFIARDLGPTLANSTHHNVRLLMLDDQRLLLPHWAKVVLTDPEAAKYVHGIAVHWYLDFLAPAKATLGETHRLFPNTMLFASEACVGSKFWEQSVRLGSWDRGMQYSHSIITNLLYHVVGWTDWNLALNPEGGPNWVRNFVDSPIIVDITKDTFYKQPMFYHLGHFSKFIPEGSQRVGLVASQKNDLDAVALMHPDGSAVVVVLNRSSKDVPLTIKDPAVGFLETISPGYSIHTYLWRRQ
Assay: Ki determination with GCase (β-glucocerebrosidase)
Conditions: pH 7, substrate Glc-β-dNP, room temperature
Measure name: pKi
Give bare numbers, as −log10 of the molar value.

Known pKi results, listed for orientation:
Compound: CCCCCCCCCN[C@@H]1[C@H](O)[C@@H](O)[C@@H](O)[C@H]1CO [compound 24]
Experimental value: 5.92

Compound: CN(C)c1cccc2c(S(=O)(=O)NCCCCCCN[C@@H]3[C@H](O)[C@@H](O)[C@@H](O)[C@H]3CO)cccc12 [compound 27]
Experimental value: 6.20

Compound: CCCCCCN[C@@H]1[C@H](O)[C@@H](O)[C@@H](O)[C@H]1CO [compound 23]
Experimental value: 4.40

Q) Given the entry N[C@@H]1[C@H](O)[C@@H](O)[C@@H](O)[C@H]1CO [compound 22] , report its measured pKi.
A) 4.74

Measured values drawn from paper PMC9029992 for this set.
